Origin of the recorded values: the supplement of paper PMC11780869

- Test system: Bacillus subtilis
- experiment.summary: cleaved RNA product abundance (RNA/gDNA barcode ratio) relative to median wild-type variant (ratio to wild type); higher = more accumulation of the downstream cleavage product
- condition: experiment (reporter, strain, medium): exp 4a: truncated aprE reporter, strain BJT201 with 2% xylose (RNase J1 expressed); cleavage site: cggR-gapA (positions -7 to +36 mutated)
Hi all, reminder that labels come from cleaved RNA product abundance, split as lower level = under 0.2, middle level = from 0.2 up to 0.4, upper level = 0.4 and over

{"sequence": "ACAGACGAAGGAGCCGCAAAGAAATTATTAAGGGATGAATAATCCCTCAACATAAATATCTCTCACTTATTTAAA", "study.system": "Bacillus subtilis", "class.assignment": "middle level"}
{"sequence": "ACAGACGAAGGAGCCGCAAAGCAGTTATTAAGGGATGAATAATCCCTCAACATAAATATCTCTCACTTATTTAAA", "study.system": "Bacillus subtilis", "class.assignment": "lower level"}
{"sequence": "ACAGACGAAGGAGCCGCAAACAAGTTATTAAGGGATGAATAATCCCTCCATATAAATATCTCTCACTTATTTAAA", "study.system": "Bacillus subtilis", "class.assignment": "middle level"}
{"sequence": "ACAGACGAAGGAGCCGCAAAGAAGTTATGAAGGGATGAATAATCCCTCAATATTAATATCTCTCACTTATTTAAA", "study.system": "Bacillus subtilis", "class.assignment": "lower level"}
{"sequence": "ACAGACGAAGGAGCCGCAAAAAAGTTATTAAGGGATGAATAATCCCTCAATATAAACATCTCTCACTTATTTAAA", "study.system": "Bacillus subtilis", "class.assignment": "upper level"}
{"sequence": "ACAGACGAAGGAGCCGCAAAGAAGTTATTAAGGGATGAATTTTCCCTCAATATAAATATCTCTCACTTATTTAAA", "study.system": "Bacillus subtilis", "class.assignment": "upper level"}
{"sequence": "ACAGACGAAGGAGCCGCAAAGAAGTTATTAAGGGATGAATAATCTCTCTATATAAATATCTCTCACTTATTTAAA", "study.system": "Bacillus subtilis", "class.assignment": "middle level"}
{"sequence": "ACAGACGAAGGAGCCGCAAAGAAGTTATTAAGGGATGAATACTCCCTCAATTTAAATATCTCTCACTTATTTAAA", "study.system": "Bacillus subtilis", "class.assignment": "lower level"}
{"sequence": "ACAGACGAAGGAGCCGCAAAGAAGTTATTAAGGGATAAAAAATCCCTCAATATAAATATCTCTCACTTATTTAAA", "study.system": "Bacillus subtilis", "class.assignment": "upper level"}
{"sequence": "ACAGACGAAGGAGCCGCAAATACGTTATTAAGGGATGAATAAACCCTCAATATAAATATCTCTCACTTATTTAAA", "study.system": "Bacillus subtilis", "class.assignment": "middle level"}
{"sequence": "ACAGACGAAGGAGCCGCAAAGAAGATATTAAGGGATGAATAATCCGTCAATATAAATATCTCTCACTTATTTAAA", "study.system": "Bacillus subtilis", "class.assignment": "middle level"}
{"sequence": "ACAGACGAAGGAGCCGCAAAGAAGTTATTAAAGGATGAATAATCCCTCAATATAAAAATCTCTCACTTATTTAAA", "study.system": "Bacillus subtilis", "class.assignment": "middle level"}
{"sequence": "ACAGACGAAGGAGCCGCAAAAAAGTTATTAACGGATGAATAATCCTTCAATATAAATATCTCTCACTTATTTAAA", "study.system": "Bacillus subtilis", "class.assignment": "lower level"}
{"sequence": "ACAGACGAAGGAGCCGCAAAGAAATTATTAAGGGATGAATAATCCCTCAATATAAAAATCTCTCACTTATTTAAA", "study.system": "Bacillus subtilis", "class.assignment": "upper level"}
